Values compiled from patent US12428403B2.

- measured on: SSTR4 (Homo sapiens)
- Sequence (P31391 whole entry): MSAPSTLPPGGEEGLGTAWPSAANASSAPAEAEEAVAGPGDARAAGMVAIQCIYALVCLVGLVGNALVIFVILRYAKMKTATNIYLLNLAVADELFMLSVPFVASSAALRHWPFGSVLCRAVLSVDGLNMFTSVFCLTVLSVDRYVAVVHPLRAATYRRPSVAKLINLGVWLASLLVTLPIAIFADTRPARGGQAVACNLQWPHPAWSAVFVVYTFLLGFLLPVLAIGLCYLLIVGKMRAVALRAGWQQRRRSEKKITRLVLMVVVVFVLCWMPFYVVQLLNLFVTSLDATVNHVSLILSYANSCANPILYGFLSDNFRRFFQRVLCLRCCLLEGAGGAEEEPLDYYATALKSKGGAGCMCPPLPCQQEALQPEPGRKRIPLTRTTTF
- test: cell-based;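 also: CHO-K1 cells overexpressing SSTR4, reduction of forskolin-driven cAMP after 30 min compound exposure at room temperature, cAMP read by HTRF LANCE Ultra kit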
measure: pEC50
Numbers only, as −log10 of the molar value.

>  <molecule>
Fc1ccc(Cc2ncc(C(F)(F)F)nc2NCCN2CCCC2)cc1

>  <measure>
pEC50

>  <test value>
7.11

$$$$
>  <molecule>
Cc1nnc([C@H](C)c2ccccc2)c(N[C@H]2CCN(C)C2)n1 (single isomer, unassigned)

>  <measure>
pEC50

>  <test value>
6.50

$$$$
>  <molecule>
Cc1nnc([C@H](C)c2ccc(F)cc2)c(N[C@@H]2CCN(C)C2)n1 (single isomer, unassigned)

>  <measure>
pEC50

>  <test value>
7.67

$$$$
>  <molecule>
CC(c1ccc(F)cc1)c1nc(-c2nccn2C)cnc1NCCN1CCCC1 (stereo not drawn)

>  <measure>
pEC50

>  <test value>
7.44

$$$$
>  <molecule>
CNC(=O)c1nc(Cc2cccc(C)c2)c(NCCN2CCCC2)nc1C

>  <measure>
pEC50

>  <test value>
8.93

$$$$

Hi! Can you tell me pEC50 for each of these molecules?
1. Cc1nc(NCCN2CCCC2)c(C(C)c2ccc(F)cc2)nc1C(=O)N(C)C (stereo not drawn)
2. CC[C@@H]1CN(C)CC[C@H]1Nc1ncc(C(F)(F)F)nc1Cc1ccc(F)cc1 (racemic)
3. Cc1nc(NCCN2CCCC2)c(C(C)c2ccc(F)cc2)nc1C(=O)N[C@H]1CCOC1 (stereo partly drawn)
4. CO[C@H]1CCN(C(=O)c2nc(C(C)c3ccc(F)cc3)c(NCCN3CCCC3)nc2C)C1 (stereo partly drawn)
5. COc1cccc(Cc2nc3c(C)cccc3nc2NCCN2CCC2)c1 (single isomer, unassigned)
6. Cc1nc(NCCN2CCCC2)c(C(C)c2ccc(F)cc2)nc1C(=O)NC1CC(F)(F)C1 (stereo not drawn)
7. Fc1ccc(Cc2nnc(C3CC3)nc2NCCN2CCC2)cc1

1: 9.11; 2: 6.13; 3: 8.06; 4: 9.17; 5: 6.48; 6: 8.01; 7: 7.79

Give one value of pEC50 per listed molecule.
1. Cc1nc(NCCN2CCCC2)c(C(C)c2ccc(F)cc2)nc1C(=O)N(C)C(C)C (stereo not drawn)
2. CNC(=O)c1cnc(NCCN2CCCC2)c(Cc2ccc(F)cc2)c1
3. CNC(=O)c1cnc(NCCN2CCCC2)c([C@H](C)c2ccc(F)cc2)n1 (single isomer, unassigned)

1: 8.77; 2: 6.78; 3: 7.73

====

- measured on: UniProt P31391
- test: cell-based
measure: pEC50
Numbers only, as −log10 of the molar value.

Consider the reported pEC50 for these compounds:
>  <compound>
Cc1nc(NCCN2CCCC2)c(C(C)c2ccc(F)cc2)nc1C(=O)NCCF (stereo not shown)

>  <pEC50>
8.51

$$$$
>  <compound>
Cc1nc(NCCN2CCCC2)c(C(C)c2ccc(F)cc2)nc1C(=O)NC1CC1 (stereo not shown)

>  <pEC50>
8.37

$$$$
>  <compound>
Cc1cccc(Cc2nc(C)c(C)nc2NC2CCN(C)CC2)c1

>  <pEC50>
6.97

$$$$

Hi! Can you tell me pEC50 for each of these compounds?
1. Cc1cccc(Cc2cc3cccc(C)c3nc2NCCN2CCCC2)c1
2. CCc1cnc(Cc2ccccc2)c(NCCN2CCC2)n1
3. Cc1nnc([C@@H](C)c2ccc(F)cc2)c(N[C@@H]2CCN(C)C2)n1 (single isomer, unassigned)

1. 6.18
2. 7.80
3. 6.92
